Tested on: Nasturtium officinale (NAAOF)
Test: Example B1 herbicidal action, post-emergence, 96-cell seed trays, climatic chamber
Format: in vivo
Parameters: scale not given here
Conditions: Application post-emergence, 1000 mg/l spray equivalent to 1000 g/ha, evaluated after 9 days (100=total damage to plant, 0=no damage to plant)
This listing pairs molecules with measured damage to plant, Nasturtium officinale (NAAOF).
Number only, no unit.

The following molecules have reported results that may help.
{"SMILES": "O=c1[nH]c2nccnc2c(O)c1-c1ccc(F)cc1Br", "QUANTITATIVE_RESULT": 9}
{"SMILES": "Cn1c(=O)c(-c2c(F)ccc(F)c2F)c(OC(=O)C(C)(C)C)c2nccnc21", "QUANTITATIVE_RESULT": 0}
{"SMILES": "CC(C)C(=O)Oc1c(-c2c(F)ccc(F)c2Cl)c(=O)n(C)c2ncc[n+]([O-])c12", "QUANTITATIVE_RESULT": 7}
{"SMILES": "CCn1c(=O)c(-c2c(Cl)cccc2Cl)c(OC(=O)C(C)(C)C)c2nccnc21", "QUANTITATIVE_RESULT": 2}
{"SMILES": "CC(C)(C)C(=O)Oc1c(-c2c(Cl)cc(C(F)(F)F)cc2Cl)c(=O)[nH]c2nccnc12", "QUANTITATIVE_RESULT": 2}

Task: State the recorded damage to plant, Nasturtium officinale (NAAOF) for this entry: `Cn1c(=O)c(-c2ccc(Cl)cc2Cl)c(OC(=O)C(C)(C)C)c2nccnc21`
Result: 8

Task: Thanks! And `CC(C)C(=O)Oc1c(-c2cc(C(F)(F)F)ccc2Cl)c(=O)[nH]c2nccnc12` ?
Result: 4

Task: Let us now turn to `O=c1[nH]c2nccnc2c(O)c1-c1c(Cl)cccc1C(F)(F)F`
Result: 3

Task: Check `C/C=C/C(=O)Oc1c(-c2c(Cl)cccc2Cl)c(=O)n(C)c2nccnc12` too.
Result: 7

Task: What about this molecule? `CCOC(=O)Oc1c(-c2c(Cl)cccc2Cl)c(=O)n(C)c2nccnc12`
Result: 7

Task: Now give it for `CC(C)C(=O)Oc1c(-c2c(F)ccc(F)c2F)c(=O)n(C)c2nccnc12` too.
Result: 7

Task: How about `CCn1c(=O)c(-c2ccccc2OC(F)(F)F)c(OC(=O)C(C)(C)C)c2nccnc21` ?
Result: 0

Task: Same question for `CC(=O)Oc1c(-c2ccccc2OC(F)(F)F)c(=O)n(Cc2ccccc2)c2nccnc12` please.
Result: 4

---

Test system: Nasturtium officinale (NAAOF)
Assay: Example B1 herbicidal action, post-emergence, 96-cell seed trays, climatic chamber
Assay type: in vivo
Design: scale not given here
Details: Application post-emergence, 1000 mg/l spray equivalent to 1000 g/ha, evaluated after 9 days (100=total damage to plant, 0=no damage to plant)
damage to plant, Nasturtium officinale (NAAOF) vs 6: less than gives Yes; not less than gives No.

{"SMILES": "CC(=O)Oc1c(-c2c(C)cc(C)cc2C)c(=O)[nH]c2nccnc12", "LABEL_VALUE": "Yes"}
{"SMILES": "O=C(Oc1c(-c2c(F)ccc(F)c2Cl)c(=O)[nH]c2nccnc12)c1ccc([N+](=O)[O-])cc1", "LABEL_VALUE": "Yes"}
{"SMILES": "CCn1c(=O)c(-c2ccccc2OC(F)(F)F)c(O)c2nccnc21", "LABEL_VALUE": "No"}
{"SMILES": "O=c1[nH]c2nccnc2c(O)c1-c1cc(Cl)cc(Cl)c1Cl", "LABEL_VALUE": "Yes"}

Task: Regarding `CCn1c(=O)c(-c2c(Cl)ccc(C)c2F)c(OC(=O)C(C)(C)C)c2nccnc21` , kindly confirm whether its damage to plant, Nasturtium officinale (NAAOF) is beneath 6.
Result: Yes

Task: Further, for `CCn1c(=O)c(-c2cc(C(F)(F)F)ccc2Cl)c(OC(=O)C(C)(C)C)c2nccnc21` ?
Result: Yes

The origin of these recorded values is patent US8133847B2.
